// provenance: the supplement of paper PMC9112550

# Tested on: Escherichia coli TOP10
# test: shrunken log2 fold change of peptide-encoding DNA abundance (4.5 h post-induction vs induction); higher = less antimicrobial activity (less host growth inhibition)
# condition parameters: time post-induction: 4.5 h; library: site-saturation at positions 5, 18, 19, 20
property label: shrunken log2 fold change

Recorded result, RRIRCRPPRLPRPRPRPCTTPRP , shrunken log2 fold change: -0.427

Recorded result, RRIRMRPPRLPRPRPRPFLHPRP , shrunken log2 fold change: -0.0137

Recorded result, RRIRFRPPRLPRPRPRPDQRPRP , shrunken log2 fold change: -0.325

Recorded result, RRIRFRPPRLPRPRPRPVEQPRP , shrunken log2 fold change: -0.0448

Recorded result, RRIRGRPPRLPRPRPRPNLRPRP , shrunken log2 fold change: 0.283

Recorded result, RRIRERPPRLPRPRPRPGEFPRP , shrunken log2 fold change: 0.033

Recorded result, RRIRPRPPRLPRPRPRPEVMPRP , shrunken log2 fold change: 0.462

Recorded result, RRIRGRPPRLPRPRPRPALPPRP , shrunken log2 fold change: 0.696

Recorded result, RRIRSRPPRLPRPRPRPRAKPRP , shrunken log2 fold change: 0.244

Recorded result, RRIRDRPPRLPRPRPRPYCQPRP , shrunken log2 fold change: -0.226

Recorded result, RRIRARPPRLPRPRPRPPCGPRP , shrunken log2 fold change: 0.443

Recorded result, RRIRTRPPRLPRPRPRPILCPRP , shrunken log2 fold change: -0.0876

Recorded result, RRIRCRPPRLPRPRPRPWELPRP , shrunken log2 fold change: 0.268

Recorded result, RRIRARPPRLPRPRPRPGSVPRP , shrunken log2 fold change: 0.301

Recorded result, RRIRSRPPRLPRPRPRPMFEPRP , shrunken log2 fold change: -0.0573

---

# Test system: Escherichia coli TOP10
# test: shrunken log2 fold change of peptide-encoding DNA abundance (4.5 h post-induction vs induction); higher = less antimicrobial activity (less host growth inhibition)
# condition parameters: time post-induction: 4.5 h; library: site-saturation at positions 5, 18, 19, 20
property label: shrunken log2 fold change
// no unit string in output, number only

The reported shrunken log2 fold change value, Escherichia coli TOP10, for RRIRKRPPRLPRPRPRPYLAPRP reads -0.295

The reported shrunken log2 fold change value, Escherichia coli TOP10, for RRIRIRPPRLPRPRPRPIRCPRP reads 0.0793

The reported shrunken log2 fold change value, Escherichia coli TOP10, for RRIRCRPPRLPRPRPRPYCTPRP reads -0.503

The reported shrunken log2 fold change value, Escherichia coli TOP10, for RRIRERPPRLPRPRPRPLQNPRP reads -0.116

The reported shrunken log2 fold change value, Escherichia coli TOP10, for RRIRGRPPRLPRPRPRPCTYPRP reads 0.00971

The reported shrunken log2 fold change value, Escherichia coli TOP10, for RRIRNRPPRLPRPRPRPMHGPRP reads -0.0225

The reported shrunken log2 fold change value, Escherichia coli TOP10, for RRIRMRPPRLPRPRPRPPPNPRP reads 1.77

The reported shrunken log2 fold change value, Escherichia coli TOP10, for RRIRYRPPRLPRPRPRPSGCPRP reads -0.264

The reported shrunken log2 fold change value, Escherichia coli TOP10, for RRIRPRPPRLPRPRPRPSMHPRP reads 0.828

The reported shrunken log2 fold change value, Escherichia coli TOP10, for RRIRNRPPRLPRPRPRPACAPRP reads 0.3

The reported shrunken log2 fold change value, Escherichia coli TOP10, for RRIRIRPPRLPRPRPRPKSIPRP reads -0.14

The reported shrunken log2 fold change value, Escherichia coli TOP10, for RRIRSRPPRLPRPRPRPCLSPRP reads -0.000866

The reported shrunken log2 fold change value, Escherichia coli TOP10, for RRIRKRPPRLPRPRPRPFHSPRP reads 0.00367

The reported shrunken log2 fold change value, Escherichia coli TOP10, for RRIRHRPPRLPRPRPRPFWVPRP reads -0.00136

The reported shrunken log2 fold change value, Escherichia coli TOP10, for RRIRLRPPRLPRPRPRPTNCPRP reads -0.0927

---

# System: Escherichia coli TOP10;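 also: peptides expressed intracellularly from a pBAD plasmid library in pooled LB shake-flask culture, induced with 0.3% L-arabinose, DNA abundance read by NGS, three biological replicates, DESeq2 with apeglm shrinkage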
# test: shrunken log2 fold change of peptide-encoding DNA abundance (4.5 h post-induction vs induction); higher = less antimicrobial activity (less host growth inhibition)
# condition parameters: time post-induction: 4.5 h; library: site-saturation at positions 5, 18, 19, 20
Hi, to clarify the labels: True covers shrunken log2 fold change from -0.03 upward, False covers anything below -0.03.

Q: Hi, just wondering whether RRIRVRPPRLPRPRPRPYQAPRP shows shrunken log2 fold change of -0.03 or higher.
Ans: False

Q: Hi, just wondering whether RRIRERPPRLPRPRPRPVACPRP shows shrunken log2 fold change of -0.03 or higher.
Ans: False

Q: Hi, just wondering whether RRIRKRPPRLPRPRPRPPFRPRP shows shrunken log2 fold change of -0.03 or higher.
Ans: True

Q: Hi, just wondering whether RRIRDRPPRLPRPRPRPQSAPRP shows shrunken log2 fold change of -0.03 or higher.
Ans: True

Q: Hi, just wondering whether RRIRVRPPRLPRPRPRPKGIPRP shows shrunken log2 fold change of -0.03 or higher.
Ans: False

Q: Hi, just wondering whether RRIRHRPPRLPRPRPRPPYIPRP shows shrunken log2 fold change of -0.03 or higher.
Ans: False

Q: Hi, just wondering whether RRIRVRPPRLPRPRPRPRCFPRP shows shrunken log2 fold change of -0.03 or higher.
Ans: True

Q: Hi, just wondering whether RRIRLRPPRLPRPRPRPGMLPRP shows shrunken log2 fold change of -0.03 or higher.
Ans: True

Q: Hi, just wondering whether RRIRKRPPRLPRPRPRPNTNPRP shows shrunken log2 fold change of -0.03 or higher.
Ans: False

Q: Hi, just wondering whether RRIRWRPPRLPRPRPRPGNDPRP shows shrunken log2 fold change of -0.03 or higher.
Ans: True

Q: Hi, just wondering whether RRIRSRPPRLPRPRPRPKAVPRP shows shrunken log2 fold change of -0.03 or higher.
Ans: True

Q: Hi, just wondering whether RRIRKRPPRLPRPRPRPQFTPRP shows shrunken log2 fold change of -0.03 or higher.
Ans: True

Q: Hi, just wondering whether RRIRTRPPRLPRPRPRPCPRPRP shows shrunken log2 fold change of -0.03 or higher.
Ans: False

Q: Hi, just wondering whether RRIRQRPPRLPRPRPRPEKKPRP shows shrunken log2 fold change of -0.03 or higher.
Ans: True

Q: Hi, just wondering whether RRIRQRPPRLPRPRPRPPHKPRP shows shrunken log2 fold change of -0.03 or higher.
Ans: True

Q: Hi, just wondering whether RRIRIRPPRLPRPRPRPLGRPRP shows shrunken log2 fold change of -0.03 or higher.
Ans: True

Q: Hi, just wondering whether RRIRERPPRLPRPRPRPPWYPRP shows shrunken log2 fold change of -0.03 or higher.
Ans: False

Q: Hi, just wondering whether RRIRPRPPRLPRPRPRPCMKPRP shows shrunken log2 fold change of -0.03 or higher.
Ans: False

Q: Hi, just wondering whether RRIRNRPPRLPRPRPRPPQSPRP shows shrunken log2 fold change of -0.03 or higher.
Ans: True

Q: Hi, just wondering whether RRIRRRPPRLPRPRPRPQNVPRP shows shrunken log2 fold change of -0.03 or higher.
Ans: True

Q: Hi, just wondering whether RRIRYRPPRLPRPRPRPKSTPRP shows shrunken log2 fold change of -0.03 or higher.
Ans: False

Q: Hi, just wondering whether RRIRTRPPRLPRPRPRPWCTPRP shows shrunken log2 fold change of -0.03 or higher.
Ans: False

Q: Hi, just wondering whether RRIRPRPPRLPRPRPRPLYLPRP shows shrunken log2 fold change of -0.03 or higher.
Ans: False

Q: Hi, just wondering whether RRIRMRPPRLPRPRPRPGISPRP shows shrunken log2 fold change of -0.03 or higher.
Ans: True

Q: Hi, just wondering whether RRIRMRPPRLPRPRPRPGYVPRP shows shrunken log2 fold change of -0.03 or higher.
Ans: False

Q: Hi, just wondering whether RRIRARPPRLPRPRPRPWKCPRP shows shrunken log2 fold change of -0.03 or higher.
Ans: True

Q: Hi, just wondering whether RRIRSRPPRLPRPRPRPGLNPRP shows shrunken log2 fold change of -0.03 or higher.
Ans: False

Q: Hi, just wondering whether RRIRNRPPRLPRPRPRPTRFPRP shows shrunken log2 fold change of -0.03 or higher.
Ans: True

Q: Hi, just wondering whether RRIRPRPPRLPRPRPRPVYDPRP shows shrunken log2 fold change of -0.03 or higher.
Ans: False

Q: Hi, just wondering whether RRIRDRPPRLPRPRPRPNKHPRP shows shrunken log2 fold change of -0.03 or higher.
Ans: False

Q: Hi, just wondering whether RRIRIRPPRLPRPRPRPCQVPRP shows shrunken log2 fold change of -0.03 or higher.
Ans: True
